test name: logP determination by HPLC on a reversed-phase column (C18)
Format: physicochemical
experimental parameters: HPLC-MS, reversed-phase column (C18); Table I-T3
endpoint label: log P

compound	endpoint label	numeric result
Cn1ccc(NC(=O)c2cc(-c3cnn(-c4c(Cl)cc(C(F)(F)F)cc4Cl)c3)cnc2Cl)n1	log P	2.8
CN(C(=O)c1cc(-c2cnn(-c3c(Cl)cc(C(O)(C(F)(F)F)C(F)(F)F)cc3Cl)c2)cnc1Cl)C1(C#N)CC1	log P	3.3
CC[S+]([O-])c1cc(C(F)(F)F)cc(Cl)c1-n1cc(-c2ccc(Cl)c(C(=O)NC3CC3)c2)cn1 (stereo not shown)	log P	3.0
Cc1ncc(-c2cnn(-c3c(Cl)cc(C(F)(C(F)(F)F)C(F)(F)F)cc3Cl)c2)cc1C(=O)NC1(C#N)CC1	log P	3.4
Cc1cc(C(F)(C(F)(F)F)C(F)(F)F)cc(C)c1-n1cc(-c2cnc(C)c(C(=O)N(C)C3CC3)c2)cn1	log P	3.6
CCSc1cc(C(F)(C(F)(F)F)C(F)(F)F)cc(Cl)c1-n1cc(-c2ccc(Cl)c(C(=O)NC3(C#N)CC3)c2)cn1	log P	4.5
O=C(NC1CC1)c1cc(-c2cnn(-c3c(Cl)cc(C(F)(F)F)c(F)c3Cl)c2)ccc1Cl	log P	3.6

The measurements presented in this section are drawn from patent US10150737B2.
